tested-on: T1, hFc tagged human LAG3 ECD recombinant protein (human, UniProt P18627 23-450)
T1 construct: range 23-450; also called biotin labelled hFc tagged human LAG3 ECD; not shown: human IgG Fc tag
T1 sequence (looked up): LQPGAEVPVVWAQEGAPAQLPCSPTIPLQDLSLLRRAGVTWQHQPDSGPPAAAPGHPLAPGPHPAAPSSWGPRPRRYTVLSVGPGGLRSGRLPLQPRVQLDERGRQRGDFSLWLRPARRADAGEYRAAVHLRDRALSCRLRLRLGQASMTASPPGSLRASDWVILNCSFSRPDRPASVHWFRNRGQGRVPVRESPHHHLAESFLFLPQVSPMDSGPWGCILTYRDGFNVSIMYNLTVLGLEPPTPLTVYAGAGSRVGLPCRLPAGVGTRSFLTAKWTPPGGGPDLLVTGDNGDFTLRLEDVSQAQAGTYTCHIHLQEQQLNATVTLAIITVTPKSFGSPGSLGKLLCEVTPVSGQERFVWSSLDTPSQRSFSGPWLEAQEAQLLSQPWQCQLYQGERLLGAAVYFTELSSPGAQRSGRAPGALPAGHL
test-protocol: competitive FACS: hFc-LAG3 ECD binding to Raji cells (MHC II)
experimental-endpoint: pIC50
Just so you know, pIC50 here is -log10 of the concentration in molar units; reply with that number alone.

So what's the measured pIC50 for this one? Antibody 021 (antibody, V domains shown, mouse hybridoma antibody) VH: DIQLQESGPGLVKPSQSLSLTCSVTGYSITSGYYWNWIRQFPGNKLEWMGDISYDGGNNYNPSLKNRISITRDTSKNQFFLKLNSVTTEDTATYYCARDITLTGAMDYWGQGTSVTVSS VL: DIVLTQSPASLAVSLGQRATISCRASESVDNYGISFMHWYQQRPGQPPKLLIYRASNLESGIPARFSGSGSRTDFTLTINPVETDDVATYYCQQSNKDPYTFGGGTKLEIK 8.40

Let us now turn to Antibody 024 (antibody, V domains shown, mouse hybridoma antibody) VH: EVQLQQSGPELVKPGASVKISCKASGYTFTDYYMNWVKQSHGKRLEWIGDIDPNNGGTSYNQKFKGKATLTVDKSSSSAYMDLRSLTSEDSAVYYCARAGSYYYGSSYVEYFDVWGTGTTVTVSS VL: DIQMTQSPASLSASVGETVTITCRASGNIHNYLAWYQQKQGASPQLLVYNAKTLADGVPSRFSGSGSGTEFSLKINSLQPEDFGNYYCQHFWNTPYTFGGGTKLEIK 8.26

Let us now turn to Antibody 035 (antibody, V domains shown, mouse hybridoma antibody) VH: QVQLQQSGAELARPGASVKLSCKASGYSFTSYGINWVKQRTGQGLEWIGEIYPRSGNTYYNEKFKDKATLTADKSSSTAYMELRSLTSEDSAVYFCARGGTYDGYYYAMDFWGQGTSVTVSS VL: DIVLTQSPASLAVSLGQRATISCRASESVDNFGSSFLHWYQQKPGQAPKLLIYRASNLESGIPARFSGSGSRTDFTLTINPVETDDVATYYCQQVNKDPRTFGGGTKLEIK 8.30
